experimentDescription: Half life in Sprague-Dawley rat at 5 mg/kg, iv administered as single dose measured up to 24 hrs
Assay type: ADME, organism-based
recordedConditions: Sprague-Dawley, in vivo
measurementKind: half-life

CC(=O)c1cc(C(=O)Nc2cc(C(C)O)cc(-c3cnn(C4CC4)c3)c2F)c2cc(N)ccn12 (configuration not stated) | 79.2 min

Indicate the recorded half-life value for this molecule: COc1ccn2c(C(C)=O)cc(C(=O)Nc3cc(C(C)O)cc(-c4cnn(C5CC5)c4)c3F)c2c1 (configuration not stated)
36.6 min

---

experimentDescription: Oral bioavailability in Sprague-Dawley rat at 10 mg/kg measured up to 24 hrs
Format: ADME, organism-based
recordedConditions: in vivo
measurementKind: bioavailability (%)
Numbers only, in %.

Indicate the recorded bioavailability value for this molecule: CC(=O)c1cc(C(=O)Nc2cc(CO)cc(-c3cnn(C)c3)c2F)c2cc(N)ccn12
0.58

---

experimentDescription: Metabolic stability in rat liver microsomes assessed as parent compound remaining at 1 uM incubated for 45 mins in presence of NADPH by LC-MS/MS analysis
Assay type: ADME, Microsome
recordedConditions: read-out: Stability
measurementKind: remaining at 0.75 h, 1 µM (%)
Answers are plain numbers, in %.

Study these solved cases before continuing.
COc1ccn2c(C(C)=O)cc(C(=O)Nc3cc(C(=O)O)cc(-c4cnn(C)c4)c3F)c2c1 | 100
COc1ccn2c(C(C)=O)cc(C(=O)Nc3cc(C(C)O)cc(-c4cnn(C5CC5)c4)c3F)c2c1 (stereo not given) | 50.7
COc1ccc2c(c1)c(C(=O)Nc1cc(C(=O)O)cc(-c3cnn(C)c3)c1F)cn2C(C)=O | 7.7
CC(=O)c1cc(C(=O)Nc2cc(CO)cc(-c3cnn(C4CC4)c3)c2F)c2cc(OC(=O)N(C)C)ccn12 | 44.7

Indicate the recorded remaining at 0.75 h, 1 µM value for this molecule: Cc1ncc2n1-c1ccc(Cl)cc1C(c1ccccc1F)=NC2
4.5

---

targetSystem: PH-interacting protein (Homo sapiens)
recordedConditions: dose 200.0 µM, time 30.0 min
measurementKind: ΔTm
Returns: string containing the number followed by the unit.

CO[C@H]1CC[C@H](n2c([C@@H]3CCCC(=O)N3c3ccc(F)c(F)c3)nc3cc(-c4c(C)noc4C)ccc32)CC1 | 0 °C

I have 5 compounds here; please give me ΔTm for each one.
1. COc1ccn2c(C(C)=O)cc(C(=O)Nc3cc(C(C)O)cc(-c4cnn(C5CC5)c4)c3F)c2c1 (stereo unspecified)
2. CC(=O)c1cc(C(=O)Nc2cc(C(C)O)cc(-c3cnn(C4CC4)c3)c2F)c2cc(N)ccn12 (stereo unspecified)
3. CC(=O)c1cc(C(=O)Nc2cc(CO)cc(-c3cnn(C)c3)c2F)c2cc(N)ccn12
4. CC(=O)c1cc(C(=O)Nc2cc(CO)cc(-c3cnn(C4CC4)c3)c2F)c2cc(OC(=O)N(C)C)ccn12
5. C[C@@H]1CC(=O)Nc2cccc(-c3ccc4c(c3)c(-c3cnn(C)c3)nn4C)c2N1

1. 0 °C
2. -0.3 °C
3. -0.3 °C
4. 0 °C
5. 0 °C

---

experimentDescription: Cmax in Sprague-Dawley rat at 2 mg/kg, iv administered as single dose measured up to 24 hrs
Format: ADME, organism-based
Set-up: time < 24 hrs, dose 2 mg/kg, route iv
recordedConditions: in vivo
measurementKind: Cmax (ng/mL)
Numbers only, in ng/mL.

Indicate the recorded Cmax value for this molecule: CC(=O)c1cc(C(=O)Nc2cc(CO)cc(-c3cnn(C)c3)c2F)c2cc(N)ccn12
2700

---

Kindly supply the reported ΔTm values for the records listed here.
targetSystem: Bromodomain adjacent to zinc finger domain protein 2B (Homo sapiens)
recordedConditions: dose 200.0 µM, time 30.0 min
One number for each entry, in °C.

Study these solved cases before continuing.
CC(=O)c1cc(C(=O)Nc2cc(CO)cc(-c3cnn(C4CC4)c3)c2F)c2cc(OC(=O)N(C)C)ccn12 | -0.2
CC(=O)c1cc(C(=O)Nc2cc(CO)cc(-c3cnn(C)c3)c2F)c2cc(N)ccn12 | -0.2
C[C@@H]1CC(=O)Nc2cccc(-c3ccc4c(c3)c(-c3cnn(C)c3)nn4C)c2N1 | -0.2
CO[C@H]1CC[C@H](n2c([C@@H]3CCCC(=O)N3c3ccc(F)c(F)c3)nc3cc(-c4c(C)noc4C)ccc32)CC1 | -0.5
COc1ccn2c(C(C)=O)cc(C(=O)Nc3cc(C(C)O)cc(-c4cnn(C5CC5)c4)c3F)c2c1 (stereo unspecified) | 0

# next compound below
Indicate the recorded ΔTm value for this compound: CC(=O)c1cc(C(=O)Nc2cc(C(C)O)cc(-c3cnn(C4CC4)c3)c2F)c2cc(N)ccn12 (stereo unspecified)
-0.2

---

Kindly supply the reported ΔTm values for the records listed here.
targetSystem: Bromodomain-containing protein 9 (Homo sapiens) (UniProt Q9H8M2)
Sequence (whole entry): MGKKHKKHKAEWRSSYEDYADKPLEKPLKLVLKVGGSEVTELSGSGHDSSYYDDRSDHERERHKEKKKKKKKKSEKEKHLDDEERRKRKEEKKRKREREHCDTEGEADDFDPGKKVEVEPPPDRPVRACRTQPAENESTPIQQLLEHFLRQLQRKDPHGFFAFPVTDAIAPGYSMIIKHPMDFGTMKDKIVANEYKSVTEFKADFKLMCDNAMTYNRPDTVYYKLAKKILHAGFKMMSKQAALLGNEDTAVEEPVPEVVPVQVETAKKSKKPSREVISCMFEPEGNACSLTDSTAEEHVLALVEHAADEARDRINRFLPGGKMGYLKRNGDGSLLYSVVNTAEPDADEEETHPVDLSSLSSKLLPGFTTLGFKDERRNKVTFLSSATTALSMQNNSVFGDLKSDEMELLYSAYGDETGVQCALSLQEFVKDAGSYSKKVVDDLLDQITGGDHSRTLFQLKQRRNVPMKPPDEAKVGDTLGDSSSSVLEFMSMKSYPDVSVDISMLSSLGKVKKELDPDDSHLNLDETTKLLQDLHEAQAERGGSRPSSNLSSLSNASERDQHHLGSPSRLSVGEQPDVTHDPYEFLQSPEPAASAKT
recordedConditions: dose 200.0 µM, time 30.0 min
One number for each entry, in °C.

Study these solved cases before continuing.
C[C@@H]1CC(=O)Nc2cccc(-c3ccc4c(c3)c(-c3cnn(C)c3)nn4C)c2N1 | 7
CO[C@H]1CC[C@H](n2c([C@@H]3CCCC(=O)N3c3ccc(F)c(F)c3)nc3cc(-c4c(C)noc4C)ccc32)CC1 | 4.3
CC(=O)c1cc(C(=O)Nc2cc(CO)cc(-c3cnn(C4CC4)c3)c2F)c2cc(OC(=O)N(C)C)ccn12 | 1.5

I have 2 molecules here; please give me ΔTm for each one.
1. COc1ccn2c(C(C)=O)cc(C(=O)Nc3cc(C(C)O)cc(-c4cnn(C5CC5)c4)c3F)c2c1 (stereo unspecified)
2. CC(=O)c1cc(C(=O)Nc2cc(CO)cc(-c3cnn(C)c3)c2F)c2cc(N)ccn12

[5, 6.5]

Indicate the recorded ΔTm value for this molecule: CC(=O)c1cc(C(=O)Nc2cc(C(C)O)cc(-c3cnn(C4CC4)c3)c2F)c2cc(N)ccn12 (stereo unspecified)
5.3

---

Kindly supply the reported Papp A→B at 2 h, 10 µM values for the records listed here.
experimentDescription: Apparent permeability across apical to basolateral side in human Caco-2 cells at 10 uM measured after 2 hrs by LC-MS/MS analysis
Assay type: ADME, cell-based
Returns: string containing the number followed by the unit.

CC(=O)c1cc(C(=O)Nc2cc(CO)cc(-c3cnn(C4CC4)c3)c2F)c2cc(OC(=O)N(C)C)ccn12 | 0.2 ×10⁻⁶ cm/s
C[C@H]1O[C@@H](O[C@H]2[C@@H](O)C[C@H](O[C@H]3[C@@H](O)C[C@H](O[C@H]4CC[C@@]5(C)[C@H](CC[C@@H]6[C@@H]5C[C@@H](O)[C@]5(C)[C@@H](C7=CC(=O)OC7)CC[C@]65O)C4)O[C@@H]3C)O[C@@H]2C)C[C@H](O)[C@@H]1O [DIGOXIN] | 1.26 ×10⁻⁶ cm/s
CC(C)NCC(O)COc1cccc2ccccc12 (centres undefined) [PROPRANOLOL] | 28.3 ×10⁻⁶ cm/s

Indicate the recorded Papp A→B at 2 h, 10 µM value for this compound: COc1ccn2c(C(C)=O)cc(C(=O)Nc3cc(C(C)O)cc(-c4cnn(C5CC5)c4)c3F)c2c1 (centres undefined)
6.68 ×10⁻⁶ cm/s

---

Kindly supply the reported ΔTm values for the records listed here.
targetSystem: Chromatin remodeling regulator CECR2 (Homo sapiens) (UniProt Q9BXF3)
Sequence (Q9BXF3 whole entry, looked up): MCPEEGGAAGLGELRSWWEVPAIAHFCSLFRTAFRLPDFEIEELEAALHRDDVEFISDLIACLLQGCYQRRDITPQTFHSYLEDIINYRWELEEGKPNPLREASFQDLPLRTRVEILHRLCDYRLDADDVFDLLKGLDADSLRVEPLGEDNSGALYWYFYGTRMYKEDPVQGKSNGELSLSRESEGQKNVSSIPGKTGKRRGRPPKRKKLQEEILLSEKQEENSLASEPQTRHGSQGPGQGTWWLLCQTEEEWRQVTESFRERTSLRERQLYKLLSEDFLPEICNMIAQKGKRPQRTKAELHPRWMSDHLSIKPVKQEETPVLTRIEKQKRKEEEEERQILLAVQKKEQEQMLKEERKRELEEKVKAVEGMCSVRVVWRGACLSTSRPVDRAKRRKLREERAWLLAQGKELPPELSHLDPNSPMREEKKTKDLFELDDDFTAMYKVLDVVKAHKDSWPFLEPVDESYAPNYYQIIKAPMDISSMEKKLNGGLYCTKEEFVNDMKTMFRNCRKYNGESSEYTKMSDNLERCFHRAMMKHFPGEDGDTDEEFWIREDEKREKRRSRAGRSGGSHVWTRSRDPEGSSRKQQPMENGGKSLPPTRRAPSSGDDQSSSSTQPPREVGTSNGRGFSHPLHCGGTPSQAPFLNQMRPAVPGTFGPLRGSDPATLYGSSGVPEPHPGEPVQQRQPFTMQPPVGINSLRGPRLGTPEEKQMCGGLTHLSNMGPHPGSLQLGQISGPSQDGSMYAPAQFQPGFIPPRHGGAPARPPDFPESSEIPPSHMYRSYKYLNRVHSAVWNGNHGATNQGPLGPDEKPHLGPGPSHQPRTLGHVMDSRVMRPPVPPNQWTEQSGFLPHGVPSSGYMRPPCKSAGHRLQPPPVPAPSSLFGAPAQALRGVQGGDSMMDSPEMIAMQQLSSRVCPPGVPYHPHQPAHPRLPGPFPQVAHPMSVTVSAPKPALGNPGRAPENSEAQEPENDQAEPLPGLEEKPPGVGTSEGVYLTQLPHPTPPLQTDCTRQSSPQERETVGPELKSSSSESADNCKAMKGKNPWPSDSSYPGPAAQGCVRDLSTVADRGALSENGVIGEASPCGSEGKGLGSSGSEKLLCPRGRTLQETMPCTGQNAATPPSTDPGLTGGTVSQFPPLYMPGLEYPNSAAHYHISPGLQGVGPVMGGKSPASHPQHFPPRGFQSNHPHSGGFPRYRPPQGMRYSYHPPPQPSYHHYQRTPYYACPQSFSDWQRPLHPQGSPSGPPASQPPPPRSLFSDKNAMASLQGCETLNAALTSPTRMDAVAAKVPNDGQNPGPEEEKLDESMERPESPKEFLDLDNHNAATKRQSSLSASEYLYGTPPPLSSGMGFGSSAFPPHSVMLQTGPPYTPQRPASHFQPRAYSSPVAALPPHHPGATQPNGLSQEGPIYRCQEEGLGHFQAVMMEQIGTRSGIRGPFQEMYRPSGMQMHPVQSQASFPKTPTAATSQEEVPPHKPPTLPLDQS
recordedConditions: dose 200.0 µM, time 30.0 min
Returns: string containing the number followed by the unit.

CC(=O)c1cc(C(=O)Nc2cc(C(C)O)cc(-c3cnn(C4CC4)c3)c2F)c2cc(N)ccn12 (stereo unspecified) | -0.2 °C
COc1ccn2c(C(C)=O)cc(C(=O)Nc3cc(C(C)O)cc(-c4cnn(C5CC5)c4)c3F)c2c1 (stereo unspecified) | 0 °C
CC(=O)c1cc(C(=O)Nc2cc(CO)cc(-c3cnn(C4CC4)c3)c2F)c2cc(OC(=O)N(C)C)ccn12 | -0.2 °C
CC(=O)c1cc(C(=O)Nc2cc(CO)cc(-c3cnn(C)c3)c2F)c2cc(N)ccn12 | -0.2 °C
CO[C@H]1CC[C@H](n2c([C@@H]3CCCC(=O)N3c3ccc(F)c(F)c3)nc3cc(-c4c(C)noc4C)ccc32)CC1 | 0 °C

Indicate the recorded ΔTm value for this compound: C[C@@H]1CC(=O)Nc2cccc(-c3ccc4c(c3)c(-c3cnn(C)c3)nn4C)c2N1
-0.2 °C

All figures here come from ChEMBL document CHEMBL5154675.
